B1: ELF3 (parent)
chain: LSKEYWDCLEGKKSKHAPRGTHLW

# Variants of: B1
# TEST: protein stability index of a GFP-peptide fusion (GPS, HEK-293T) (PSI 1-6); higher = more stable;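 further: lentivirally expressed fusions sorted by FACS into six bins by GFP to DsRed ratio, PSI derived from sequencing read proportions per bin multiplied by bin number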
# COND: c terminus: a fixed tail appended
METRIC: protein stability index
In your answer, state the number alone without any accompanying words.

| MUTATION ANNOTATION | protein stability index |
| --- | --- |
| E4Y | 2.16 |
| T21S | 2.24 |
| L1C | 2.42 |

Next, consider the following variant.
// protein stability index value for D7R : 1.65

Taken from the supplement of paper PMC10567573.
